measurementTarget: Recombinant CatD (Homo sapiens (Human), UniProt P07339)
Sequence (P07339 65-412): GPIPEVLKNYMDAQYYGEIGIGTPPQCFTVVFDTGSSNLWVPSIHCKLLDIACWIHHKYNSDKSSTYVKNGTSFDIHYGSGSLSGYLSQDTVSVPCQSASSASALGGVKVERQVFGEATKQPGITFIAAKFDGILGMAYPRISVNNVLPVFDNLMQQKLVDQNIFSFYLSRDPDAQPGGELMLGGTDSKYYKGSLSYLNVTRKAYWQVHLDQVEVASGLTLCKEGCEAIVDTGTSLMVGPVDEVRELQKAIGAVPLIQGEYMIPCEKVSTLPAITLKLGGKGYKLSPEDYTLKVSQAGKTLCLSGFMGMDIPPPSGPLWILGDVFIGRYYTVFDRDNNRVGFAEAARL
assayProtocol: In vitro enzymatic Cathepsin D (CatD) FRET assay
testSettings: read-out: Cat D Enzyme IC50
observedProperty: IC50 (µM)

For orientation, consider the following solved cases.
# compound, IC50 / µM
rows = [
    ("C#CCOc1cnc(/C(F)=C/c2ccc(F)c([C@]34CN(C(=O)OC(C)(C)C)C[C@H]3CSC(N)=N4)c2)cn1", 28.6),
    ("C#CCOc1cnc(/C(F)=C/c2ccc(F)c([C@]34CO[C@H](C(F)(F)F)[C@H]3CSC(N)=N4)c2)cn1", 160),
    ("NC1=N[C@@]2(c3cc(/C=C(\\F)c4ccc(Cl)cn4)ccc3F)COC[C@H]2CS1", 181),
    ("NC1=N[C@@]2(c3cc(/C=C(\\F)c4ccc(Cl)cn4)ccc3F)CN(c3ncc(F)cn3)C[C@H]2CS1", 49.1),
    ("NC1=N[C@]2(c3cc(/C=C(\\F)c4ccc(Cl)cn4)ccc3F)COC[C@@H]2CS1", 654),
]

[1] NC1=N[C@@]2(c3cc(/C=C(\F)c4ncc(C(F)(F)F)cc4Cl)ccc3F)CO[C@H](C(F)(F)F)[C@H]2CS1
[2] CC#CCOc1cnc(/C(F)=C/c2ccc(F)c([C@]34CN(c5ncc(F)cn5)C[C@H]3CSC(N)=N4)c2)cn1
[3] COc1nc(N2C[C@H]3CSC(N)=N[C@@]3(c3cc(/C=C(\F)c4ccc(C#N)cn4)ccc3F)C2)ncc1F
[4] N#Cc1ccc(/C(F)=C/c2ccc(F)c([C@@]34COC[C@@H]3CSC(N)=N4)c2)nc1
Returns the items ordered by IC50, from maximum to minimum. Please, when replying, give the labels in the order that was requested. 4, 1, 3, 2
(4: 815 µM, 1: 382 µM, 3: 59.3 µM, 2: 13.2 µM)

---

measurementTarget: human recombinant BACE1 (Homo sapiens (Human), UniProt P56817)
Sequence (P56817 46-501): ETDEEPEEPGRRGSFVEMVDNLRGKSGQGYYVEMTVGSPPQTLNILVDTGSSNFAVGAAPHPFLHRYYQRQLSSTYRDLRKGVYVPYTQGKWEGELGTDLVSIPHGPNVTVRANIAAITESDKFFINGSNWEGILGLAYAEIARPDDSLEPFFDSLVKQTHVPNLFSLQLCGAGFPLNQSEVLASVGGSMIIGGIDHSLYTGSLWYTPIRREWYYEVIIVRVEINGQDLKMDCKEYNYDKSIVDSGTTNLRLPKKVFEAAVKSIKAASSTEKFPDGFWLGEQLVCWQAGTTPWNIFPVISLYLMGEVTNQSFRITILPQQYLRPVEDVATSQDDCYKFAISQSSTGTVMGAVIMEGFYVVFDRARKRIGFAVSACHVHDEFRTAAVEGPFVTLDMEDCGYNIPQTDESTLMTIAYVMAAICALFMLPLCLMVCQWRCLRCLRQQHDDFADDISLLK
assayProtocol: In vitro enzymatic BACE1 FRET assay
testSettings: read-out: BACE1 Enzyme IC50
pIC50: −log10 of the molar value.
observedProperty: pIC50

# compound, pIC50
records = [
    ("COc1cnc(/C(F)=C/c2ccc(F)c([C@]34CN(c5ncc(F)cn5)C[C@H]3CSC(N)=N4)c2)cn1 [Example 108]", 8.57),
]

[A] N#Cc1ccc(/C(F)=C/c2ccc(F)c([C@@]34CO[C@@H](C(F)(F)F)[C@@H]3COC(N)=N4)c2)nc1 (single isomer, unassigned) [Example 143]
[B] NC1=N[C@@]2(c3cc(/C=C(\F)c4ccc(OC(F)(F)F)cn4)ccc3F)CO[C@H](C(F)(F)F)[C@H]2CS1 [Example 129]
Of A and B , whose reported pIC50 is numerically smaller? Lab log: write the label of the selected item as the result. A

---

measurementTarget: human recombinant BACE1 (Homo sapiens (Human), UniProt P56817)
assayProtocol: In vitro enzymatic BACE1 FRET assay
testSettings: read-out: BACE1 Enzyme IC50
pIC50: −log10 of the molar value.
observedProperty: pIC50

A selection of reference data follows.
# molecule, observedProperty, recordedResult
measured = [
    ("N#Cc1ccc(/C(F)=C/c2ccc(F)c([C@@]34CO[C@@H](C(F)(F)F)[C@@H]3COC(N)=N4)c2)nc1 (racemic) [Example 141]", "pIC50", 7.06),
    ("N#Cc1cnc(/C(F)=C/c2ccc(F)c([C@]34CN(c5ncc(F)cn5)C[C@H]3CSC(N)=N4)c2)cn1", "pIC50", 9.49),
]

[a] N#Cc1ccc(/C(F)=C/c2ccc(F)c([C@]34CO[C@H](CF)[C@H]3CSC(N)=N4)c2)nc1
[b] N#Cc1ccc(/C(F)=C/c2ccc(F)c([C@]34CO[C@H](C(F)(F)F)[C@H]3CSC(N)=N4)c2)nc1
[c] CC#CCOc1cnc(/C(F)=C/c2ccc(F)c([C@]34CN(c5ncc(F)cn5)C[C@H]3CSC(N)=N4)c2)cn1
[d] N#Cc1ccc(/C(F)=C/c2ccc(F)c([C@@]34CN(c5ncc(F)cn5)C[C@@H]3CSC(N)=N4)c2)nc1
[e] N#Cc1ccc(/C(F)=C/c2ccc(F)c([C@]34CO[C@H](C(F)(F)F)[C@H]3COC(N)=N4)c2)nc1 (single isomer, unassigned)
I would appreciate it if you could sort these 5 molecules by pIC50, starting from the smallest number. Give your ranking as a list of the labels in the requested order. e, b, a, d, c
(e: 7.43, b: 7.70, a: 8.42, d: 8.73, c: 9.54)
